molecular target: Kinesin-like protein KIF18A (Homo sapiens)
Sequence (Q8NI77 whole entry): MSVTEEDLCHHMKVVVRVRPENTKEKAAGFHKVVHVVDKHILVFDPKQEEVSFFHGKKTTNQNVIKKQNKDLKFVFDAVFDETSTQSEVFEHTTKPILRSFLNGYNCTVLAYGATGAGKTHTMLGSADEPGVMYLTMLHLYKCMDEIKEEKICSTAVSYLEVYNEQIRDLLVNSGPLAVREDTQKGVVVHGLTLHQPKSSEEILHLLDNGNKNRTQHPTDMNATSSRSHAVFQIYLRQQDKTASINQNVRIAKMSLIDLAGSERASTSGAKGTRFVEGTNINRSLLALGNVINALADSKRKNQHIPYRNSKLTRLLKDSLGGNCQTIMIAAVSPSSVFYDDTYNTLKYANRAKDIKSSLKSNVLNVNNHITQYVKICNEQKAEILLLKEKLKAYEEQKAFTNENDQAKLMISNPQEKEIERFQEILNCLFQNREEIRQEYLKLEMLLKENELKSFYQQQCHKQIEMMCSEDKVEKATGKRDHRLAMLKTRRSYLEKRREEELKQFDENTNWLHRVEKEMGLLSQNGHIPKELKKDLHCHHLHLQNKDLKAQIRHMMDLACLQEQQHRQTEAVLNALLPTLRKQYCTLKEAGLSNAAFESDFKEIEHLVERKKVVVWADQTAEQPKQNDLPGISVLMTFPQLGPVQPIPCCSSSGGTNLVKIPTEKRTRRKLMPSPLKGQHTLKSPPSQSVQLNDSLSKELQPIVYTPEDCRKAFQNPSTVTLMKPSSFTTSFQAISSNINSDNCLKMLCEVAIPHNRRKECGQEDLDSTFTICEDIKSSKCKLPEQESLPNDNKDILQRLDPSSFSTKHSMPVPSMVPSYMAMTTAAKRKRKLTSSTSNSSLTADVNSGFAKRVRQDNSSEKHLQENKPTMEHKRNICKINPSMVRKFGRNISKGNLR
Measured pIC50 by item
Schema: pIC50 number; meaning minus log10 of the concentration expressed in molar units.

// solved cases for pIC50 follow
[[record]]
compound = "CS(=O)(=O)Nc1ccc(C(=O)Nc2cn3ccnc3c(N3CCC(F)(F)CC3)n2)c(N2CC3CCC(C3)C2)c1 [US20250382298, Compound 19]"
recorded_metric = "pIC50"
reading = 7.57

[[record]]
compound = "CS(=O)(=O)Nc1ccc(C(=O)Nc2cc3cccnc3c(N3CCC(F)(F)CC3)n2)c(N2CC3CCC(C3)C2)c1 [US20250382298, Compound 33]"
recorded_metric = "pIC50"
reading = 6.95

[[record]]
compound = "O=C(Nc1cn2c(F)cnc2c(N2CCC(F)(F)CC2)n1)c1ccc(NS(=O)(=O)CCO)cc1N1CC2CCC(C2)C1 [US20250382298, Compound 51]"
recorded_metric = "pIC50"
reading = 8.00

[[record]]
compound = "CS(=O)(=O)Nc1ccc(C(=O)Nc2cc3nccnc3c(N3CCC(F)(F)CC3)n2)c(N2CC3CCC(C3)C2)c1 [US20250382298, Compound 72]"
recorded_metric = "pIC50"
reading = 6.87


// next entry
Entry CS(=O)(=O)Nc1ccc(C(=O)Nc2cc3cccnc3c(N3CCC(F)(F)CC3)n2)c(N2CCC3(CC2)CC3)c1 [US20250382298, Compound 32] , system Kinesin-like protein KIF18A (Homo sapiens): what pIC50 was measured?
6.93
